Protocol Description: Pharmacokinetic study in rats (oral and intravenous), filgotinib quantified from dried blood spots by LC-MS/MS
Assay type: in vivo
Test Context: male, Sprague Dawley, whole blood (dried blood spots); rat, intravenous, 2.0 mg/kg, DBS blood
Readout: AUC(0-inf) (ng·h/mL)
Write the answer as a number in ng·h/mL, unit excluded.

Query :: Hello, please tell me recorded AUC(0-inf) for this one: O=C(Nc1nc2cccc(-c3ccc(CN4CCS(=O)(=O)CC4)cc3)n2n1)C1CC1
Result :: 1800

###

Protocol Description: Pharmacokinetic study in rats (oral and intravenous), filgotinib quantified from dried blood spots by LC-MS/MS
Type: in vivo
Test Context: male, Sprague Dawley, whole blood (dried blood spots); rat, oral, 10 mg/kg, DBS blood
Readout: AUC(0-inf) (ng·h/mL)
Entry rule: numbers only, all in ng·h/mL.

Query :: Report AUC(0-inf) for O=C(Nc1nc2cccc(-c3ccc(CN4CCS(=O)(=O)CC4)cc3)n2n1)C1CC1 [filgotinib]
Result :: 3720
